B1: INTS3 (parent)
chain: KKREFRFHPIKETVVEEPVDITPY

Variants of: B1
Assay: protein stability index of a GFP-peptide fusion (GPS, HEK-293T) (PSI 1-6); higher = more stable;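 also: lentivirally expressed fusions sorted by FACS into six bins by GFP to DsRed ratio, PSI derived from sequencing read proportions per bin multiplied by bin number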
Details: c terminus: a fixed tail appended
observation_type: protein stability index

R6S	4.31
T13L	1.43
F5L	4.01
H8W	3.41
P9M	2.17
H8S	3.54

**Query** Can you look up the measured protein stability index of `H8V` for me?
**Result** 2.49

**Query** // protein stability index lookup, key: `F5A`
**Result** 4.36

**Query** Give its protein stability index value. Item: `V19M`
**Result** 2.23

**Query** Tell me the measured protein stability index of `E4V` , please.
**Result** 1.27

**Query** Fill in: protein stability index of `P18C` is ___
**Result** 1.86

**Query** // lookup protein stability index for `K2D`
**Result** 2.53

**Query** Please report the recorded protein stability index for `P9G` .
**Result** 2.5

**Query** I am curious: what protein stability index value has been reported for `E12D` ?
**Result** 1.87

**Query** Could you tell me which protein stability index is on file for `V19P` ?
**Result** 2.06

**Query** GET /values?readout=protein stability index&item= `E4L`
**Result** 1.79

All values here come from the supplement of paper PMC10567573.
